# Test system: ATP;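 also: ATP exposure 15 min at 22 °C before imaging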
# experiment: switch fluorescence ratio, 500 uM ATP over buffer (Cy3 cluster intensity, sum of 5 cycles each) (fold (ratio)); higher = stronger signal-on switching upon ATP binding; sequences stand for … in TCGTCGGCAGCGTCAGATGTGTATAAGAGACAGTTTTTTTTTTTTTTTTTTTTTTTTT…TC
# condition notes: aptamer strand: ATP DNA aptamer (quencher-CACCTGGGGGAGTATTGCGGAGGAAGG + anchor), 100 nM annealed; ATP concentration: 500 uM
Hi there, I'd appreciate the recorded switch fluorescence ratio for every entry that follows.
Provide a numeric answer; units are not to be included.

Inquiry: Record request: switch fluorescence ratio value, item TGATCTTTCT
Reply text: 1.01

Inquiry: Record request: switch fluorescence ratio value, item TTACGGGCAC
Reply text: 1.18

Inquiry: Record request: switch fluorescence ratio value, item GATATTAATT
Reply text: 0.978

Inquiry: Record request: switch fluorescence ratio value, item TGTTGTGTAG
Reply text: 0.977

Inquiry: Record request: switch fluorescence ratio value, item CGCATAGGGT
Reply text: 1.13

Inquiry: Record request: switch fluorescence ratio value, item GCAGTGTGCG
Reply text: 0.985

Inquiry: Record request: switch fluorescence ratio value, item TTTTTGTGTG
Reply text: 0.993

Inquiry: Record request: switch fluorescence ratio value, item CTAGGGCTTC
Reply text: 0.979

Inquiry: Record request: switch fluorescence ratio value, item TAACGGCGCG
Reply text: 1.03

Inquiry: Record request: switch fluorescence ratio value, item AAGAAATTTG
Reply text: 0.992

Inquiry: Record request: switch fluorescence ratio value, item CCTTGAGGGG
Reply text: 0.993

Inquiry: Record request: switch fluorescence ratio value, item TCGACGGGAT
Reply text: 2.42

Inquiry: Record request: switch fluorescence ratio value, item AAACGGTTTC
Reply text: 0.993

Inquiry: Record request: switch fluorescence ratio value, item GGGAGGTAAT
Reply text: 1

Inquiry: Record request: switch fluorescence ratio value, item TTTGGACTGT
Reply text: 0.988

Inquiry: Record request: switch fluorescence ratio value, item TTATTACT
Reply text: 0.981

Inquiry: Record request: switch fluorescence ratio value, item GCCGGGACTA
Reply text: 1.01

Inquiry: Record request: switch fluorescence ratio value, item AAAATTCAAG
Reply text: 0.983

Inquiry: Record request: switch fluorescence ratio value, item GGTTCGGGGT
Reply text: 0.982

Inquiry: Record request: switch fluorescence ratio value, item GATGTTGTTG
Reply text: 0.997

Inquiry: Record request: switch fluorescence ratio value, item TGGGGCGAAA
Reply text: 0.997

Inquiry: Record request: switch fluorescence ratio value, item GTTTCTGTTA
Reply text: 0.957

Inquiry: Record request: switch fluorescence ratio value, item TCCAATCGGT
Reply text: 0.973

Inquiry: Record request: switch fluorescence ratio value, item TTAGCTTGGT
Reply text: 0.999

Inquiry: Record request: switch fluorescence ratio value, item CGCATGAGGC
Reply text: 1.18

Inquiry: Record request: switch fluorescence ratio value, item TAGGGTCTCT
Reply text: 0.989

Inquiry: Record request: switch fluorescence ratio value, item TTATAAGAGT
Reply text: 0.987

Inquiry: Record request: switch fluorescence ratio value, item AAGATTTAAG
Reply text: 1.02

Inquiry: Record request: switch fluorescence ratio value, item GTCTAACTGC
Reply text: 0.962

Inquiry: Record request: switch fluorescence ratio value, item GGATTGATTA
Reply text: 1.01

Inquiry: Record request: switch fluorescence ratio value, item CGTCATATGC
Reply text: 1.29

Inquiry: Record request: switch fluorescence ratio value, item ACTTTTAGTT
Reply text: 1.05

Inquiry: Record request: switch fluorescence ratio value, item AAGGCACAAG
Reply text: 1

Inquiry: Record request: switch fluorescence ratio value, item AGTCTGAGAC
Reply text: 1.01

Inquiry: Record request: switch fluorescence ratio value, item CTCATTTGAC
Reply text: 1.03

Inquiry: Record request: switch fluorescence ratio value, item TCAGGGAGGG
Reply text: 1.06

Inquiry: Record request: switch fluorescence ratio value, item GCAGGAAAAC
Reply text: 1.04

Inquiry: Record request: switch fluorescence ratio value, item TATTGGGTCG
Reply text: 0.99

Inquiry: Record request: switch fluorescence ratio value, item AAAGTACGGT
Reply text: 1.21

Inquiry: Record request: switch fluorescence ratio value, item AACAGGGGGC
Reply text: 1.04

Inquiry: Record request: switch fluorescence ratio value, item ATTTGAGGAT
Reply text: 0.972

Inquiry: Record request: switch fluorescence ratio value, item TTGGGTTAGG
Reply text: 0.979

Inquiry: Record request: switch fluorescence ratio value, item AGATGTAGTG
Reply text: 0.995

* * *

# Tested on: ATP;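 also: ATP exposure 15 min at 22 °C before imaging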
# experiment: switch fluorescence ratio, 500 uM ATP over buffer (Cy3 cluster intensity, sum of 5 cycles each) (fold (ratio)); higher = stronger signal-on switching upon ATP binding; sequences stand for … in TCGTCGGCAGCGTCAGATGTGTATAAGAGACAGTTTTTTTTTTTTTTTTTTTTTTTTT…TC
# condition notes: aptamer strand: ATP DNA aptamer (quencher-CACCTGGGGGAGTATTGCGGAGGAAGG + anchor), 100 nM annealed; ATP concentration: 500 uM
Hi there, I'd appreciate the recorded switch fluorescence ratio for every entry that follows.
Provide a numeric answer; units are not to be included.

Inquiry: Record request: switch fluorescence ratio value, item CGGGCTAACA
Reply text: 0.972

Inquiry: Record request: switch fluorescence ratio value, item AGAGTAGTGT
Reply text: 0.99

Inquiry: Record request: switch fluorescence ratio value, item GTATTAGGGT
Reply text: 1

Inquiry: Record request: switch fluorescence ratio value, item TTAGCGTTGT
Reply text: 0.96

Inquiry: Record request: switch fluorescence ratio value, item CGTCACGGGA
Reply text: 1.05

Inquiry: Record request: switch fluorescence ratio value, item CCGGGGGCTT
Reply text: 1.22

Inquiry: Record request: switch fluorescence ratio value, item TGCGTTAGCC
Reply text: 1.04

Inquiry: Record request: switch fluorescence ratio value, item GAAAGGGATT
Reply text: 1

Inquiry: Record request: switch fluorescence ratio value, item GTTTGGGGTA
Reply text: 0.986

Inquiry: Record request: switch fluorescence ratio value, item GTTATGGGGT
Reply text: 1.01

Inquiry: Record request: switch fluorescence ratio value, item GGCAATTATG
Reply text: 1.02

Inquiry: Record request: switch fluorescence ratio value, item AGTGTGTTCT
Reply text: 1.02

Inquiry: Record request: switch fluorescence ratio value, item CCATTGAGAC
Reply text: 1.04

Inquiry: Record request: switch fluorescence ratio value, item CCGCTATTGT
Reply text: 2.77

Inquiry: Record request: switch fluorescence ratio value, item AAACGGTATT
Reply text: 1.09

Inquiry: Record request: switch fluorescence ratio value, item ATTATAAGGG
Reply text: 1.02

Inquiry: Record request: switch fluorescence ratio value, item AATAATGCAA
Reply text: 1.07

Inquiry: Record request: switch fluorescence ratio value, item AAGTCTATAA
Reply text: 1.02

Inquiry: Record request: switch fluorescence ratio value, item ACTGGGGGAC
Reply text: 1.04

Inquiry: Record request: switch fluorescence ratio value, item ATACATCTAG
Reply text: 0.996

* * *

# Tested on: ATP;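 also: ATP exposure 15 min at 22 °C before imaging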
# experiment: switch fluorescence ratio, 500 uM ATP over buffer (Cy3 cluster intensity, sum of 5 cycles each) (fold (ratio)); higher = stronger signal-on switching upon ATP binding; sequences stand for … in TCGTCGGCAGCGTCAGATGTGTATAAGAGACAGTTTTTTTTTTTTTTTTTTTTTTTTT…TC
# condition notes: aptamer strand: ATP DNA aptamer (quencher-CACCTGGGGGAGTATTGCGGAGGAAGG + anchor), 100 nM annealed; ATP concentration: 500 uM
# cutoff 1 applies to switch fluorescence ratio; >= gives label 1, < gives label 0

Inquiry: Please check the record TTCCGAGTTC and state if its switch fluorescence ratio is at or above 1.
Reply text: label 1

Inquiry: Please check the record GCATGATAAC and state if its switch fluorescence ratio is at or above 1.
Reply text: label 1

Inquiry: Please check the record ACCGAGATCA and state if its switch fluorescence ratio is at or above 1.
Reply text: label 1

Inquiry: Please check the record AGTTTAGGGT and state if its switch fluorescence ratio is at or above 1.
Reply text: label 1

Inquiry: Please check the record CCAGTAGGAG and state if its switch fluorescence ratio is at or above 1.
Reply text: label 1

Inquiry: Please check the record GTCTGAGGTT and state if its switch fluorescence ratio is at or above 1.
Reply text: label 0

Inquiry: Please check the record GGGGGGGACG and state if its switch fluorescence ratio is at or above 1.
Reply text: label 0

Inquiry: Please check the record GAGAGTTAAG and state if its switch fluorescence ratio is at or above 1.
Reply text: label 0

Inquiry: Please check the record TGGAATTAGC and state if its switch fluorescence ratio is at or above 1.
Reply text: label 1

Inquiry: Please check the record CTTATAGCAT and state if its switch fluorescence ratio is at or above 1.
Reply text: label 1

Inquiry: Please check the record CCGATTAATA and state if its switch fluorescence ratio is at or above 1.
Reply text: label 1

Inquiry: Please check the record TCGGTCCGTT and state if its switch fluorescence ratio is at or above 1.
Reply text: label 0

Inquiry: Please check the record CGTCGCAGTG and state if its switch fluorescence ratio is at or above 1.
Reply text: label 1

Inquiry: Please check the record GGTGCTGGTG and state if its switch fluorescence ratio is at or above 1.
Reply text: label 1

Inquiry: Please check the record TGGGGTGTGG and state if its switch fluorescence ratio is at or above 1.
Reply text: label 1
